# key: entry, value: pIC50
system: HCV replicon 1AY93H; assay: microbe, parasite or virus in culture; assay type: cell-based, Hepatitis C virus (HCV); conditions: read-out: 1A Y93H IC50; HCV replicon 1A Y93H; Replicon Assay A
pIC50: −log10 of the molar value.
Endpoint Label: pIC50

Molecule	Endpoint Label	Value
CCc1ccc(C2Oc3cc(-c4cnc([C@@H]5CCCN5C(=O)[C@@H](NC(=O)OC)C(C)C)[nH]4)ccc3-c3c(F)c4cc(-c5cnc([C@@H]6CCCN6C(=O)[C@@H](NC(=O)OC)C(C)C)[nH]5)ccc4n32)s1 (single isomer, unassigned) [Compound 603]	pIC50	9.74
COC(=O)N[C@H](C(=O)N1CCC[C@H]1c1ncc(-c2ccc3c(c2)OC(c2ccc(C4CC4)s2)n2c-3c(F)c3cc(-c4cnc([C@@H]5CCCN5C(=O)[C@@H](NC(=O)OC)C(C)C)[nH]4)ccc32)[nH]1)C(C)C (single isomer, unassigned) [Compound 606]	pIC50	9.79
COC(=O)N[C@H](C(=O)N1CCC[C@H]1c1nc(-c2ccc3c(c2)OC(c2ccc(C)s2)n2c-3cc3cc(-c4c[nH]c([C@@H]5NCCN5C(=O)[C@@H](NC(=O)OC)C(C)C)n4)ccc32)c[nH]1)C(C)C (single isomer, unassigned) [Compound 700]	pIC50	8.93
COC(=O)NC(C(=O)N1[C@@H]2C[C@@H]2C[C@H]1c1ncc(-c2ccc3c(c2)cc2n3C(c3cc4c(s3)CCC4)Oc3cc(-c4cnc([C@@H]5CCCN5C(=O)[C@@H](NC(=O)OC)C(C)C)[nH]4)cc(F)c3-2)[nH]1)C(C)C (single isomer, unassigned) [Compound 660]	pIC50	8.98

* * *

system: HCV replicon 1AY93H; experiment: microbe, parasite or virus in culture; format: cell-based, Hepatitis C virus (HCV); conditions: read-out: 1A Y93H IC50; replicon 1AY93H; Replicon Assay A
Endpoint Label: IC50 (nM)

Compound	Value
COC(=O)NC(C(=O)N1[C@@H]2C[C@@H]2C[C@H]1c1ncc(-c2ccc3c(c2)cc2n3C(c3ccc(C4CC4)s3)Oc3cc(-c4cnc([C@@H]5CCCN5C(=O)[C@@H](NC(=O)OC)C(C)C)[nH]4)cc(F)c3-2)[nH]1)C1C[C@@H](C)O[C@@H](C)C1 (single isomer, unassigned) [Compound 272]	1
COC(=O)N[C@H](C(=O)N1CCC[C@H]1c1ncc(-c2cc(F)c3c(c2)OC(c2cc(C4CC4)cs2)n2c-3cc3cc(-c4cnc([C@@H]5CCCN5C(=O)[C@@H](NC(=O)OC)C(C)C)[nH]4)ccc32)[nH]1)C(C)C (single isomer, unassigned) [Compound 23]	0.24
COC(=O)N[C@H](C(=O)N1CCC[C@H]1c1ncc(-c2cc(F)c3c(c2)OC(c2ccc(C#CC4CC4)s2)n2c-3cc3cc(-c4cnc([C@@H]5CCCN5C(=O)[C@@H](NC(=O)OC)C(C)C)[nH]4)ccc32)[nH]1)C(C)C (single isomer, unassigned) [Compound 86]	0.003
COC(=O)N[C@H](C(=O)N1CCC[C@H]1c1ncc(-c2cc(F)c3c(c2)OC(c2cc4c(s2)CCC(C)(C)O4)n2c-3cc3cc(-c4cnc([C@@H]5CCCN5C(=O)[C@@H](NC(=O)OC)C(C)C)[nH]4)ccc32)[nH]1)C(C)C (single isomer, unassigned) [Compound 397]	0.004

* * *

tested on: HCV replicon 1AY93H; experiment: microbe, parasite or virus in culture; format: cell-based, Hepatitis C virus (HCV); conditions: read-out: 1A Y93H IC50; replicon 1AY93H; Replicon Assay A
pIC50: −log10 of the molar value.
Endpoint Label: pIC50

Compound	Value
COC(=O)NC(C(=O)N1CCC[C@H]1c1ncc(-c2cc(F)c3c(c2)OC(c2ccc(C4CC4)s2)n2c-3cc3cc(-c4cnc([C@@H]5C[C@H]6C[C@H]6N5C(=O)[C@@H](NC(=O)OC)C(C)C)[nH]4)ccc32)[nH]1)C(C)(C)F (single isomer, unassigned) [Compound 98]	10.22
COC(=O)N[C@H](C(=O)N1CCC[C@H]1c1ncc(-c2cc(F)c3c(c2)OC(c2csc(C4CC4)c2)n2c-3cc3cc(-c4cnc([C@@H]5CCCN5C(=O)[C@@H](NC(=O)OC)C(C)C)[nH]4)ccc32)[nH]1)C(C)C (single isomer, unassigned) [Compound 321]	8.24
CCc1ccc(C2Oc3cc(-c4cnc([C@@H]5CCCN5C(=O)C(NC(=O)OC)C5CCOC(C)(C)C5)[nH]4)cc(F)c3-c3cc4cc(-c5cnc([C@@H]6CCCN6C(=O)[C@@H](NC(=O)OC)C(C)C)[nH]5)ccc4n32)s1 (single isomer, unassigned) [Compound 165]	9.57
COC(=O)NC(C(=O)N1CCC[C@H]1c1ncc(-c2ccc3c(c2)cc2n3C(c3ccc(C4CC4)s3)Oc3cc(-c4cnc([C@@H]5C[C@@H](F)CN5C(=O)[C@@H](NC(=O)OC)C(C)C)[nH]4)cc(F)c3-2)[nH]1)C(C)(C)F (single isomer, unassigned) [Compound 113]	8.41
CCc1ccc(C2Oc3cc(-c4cnc([C@@H]5CCCN5C(=O)[C@@H](NC(=O)OC)C(C)C)[nH]4)cc(F)c3-c3cc4cc(-c5cnc([C@@H]6C[C@@H](F)CN6C(=O)C(NC(=O)OC)C6CCOC(C)(C)C6)[nH]5)ccc4n32)s1 (single isomer, unassigned) [Compound 255]	10.08
COC(=O)NC(C(=O)N1CCC[C@H]1c1ncc(-c2ccc3c(c2)cc2n3C(c3ccc(C(C)C)s3)Oc3cc(-c4cnc([C@@H]5CCCN5C(=O)[C@@H](NC(=O)OC)C(C)C)[nH]4)cc(F)c3-2)[nH]1)C1CCOC(C)(C)C1 (single isomer, unassigned) [Compound 239]	8.18
COC(=O)N[C@H](C(=O)N1CCC[C@@H]1c1ncc(-c2cc(F)c3c(c2)OC(c2ccc(C(C)C)s2)n2c-3cc3cc(-c4c[nH]c([C@@H]5CCCN5C(=O)[C@H](NC(=O)OC)C5C[C@@H](C)O[C@@H](C)C5)n4)ccc32)[nH]1)C(C)C (stereo partly shown) [Compound 241]	11.30

* * *

Tested on: HCV replicon 1AQ30D
Assay: microbe, parasite or virus in culture
Assay type: cell-based, Hepatitis C virus (HCV)
Settings: Hepatitis C virus, read-out: 1A Q30D IC50 (nM), replicon 1AQ30D; Replicon Assay B
Experimental: In an alternate assay (“Replicon Assay B”), 1000 cells were seeded per well in a 384-well collagen coated black plate from Greiner bio-one (Cat #781946) in 5% FBS. Inhibitors of this invention were added at 24 h post-seeding, and the plates were incubated for 3 days. […] HCV replicon RNA level was measured by real-time PCR using the RNA-to-CT kit from Applied Biosystem (Cat #4392656) and genotype-specific primers and probes. […]

Molecule	IC50, nM
COC(=O)N[C@H](C(=O)N1CCC[C@H]1c1ncc(-c2cc(F)c3c(c2)OC(c2ccc(C4(O)CC4)s2)n2c-3cc3cc(-c4cnc([C@@H]5CCCN5C(=O)[C@@H](NC(=O)OC)C(C)C)[nH]4)ccc32)[nH]1)C(C)C (single isomer, unassigned) [Compound 60]	0.35
COC(=O)NC(C(=O)N1CCC[C@H]1c1ncc(-c2ccc3c(c2)cc2n3C(c3cc4nccnc4s3)Oc3cc(-c4cnc([C@@H]5CCCN5C(=O)[C@@H](NC(=O)OC)C(C)C)[nH]4)cc(F)c3-2)[nH]1)C1C[C@@H](C)O[C@@H](C)C1 (single isomer, unassigned) [Compound 372]	0.0964
COC(=O)N[C@H](C(=O)N1CCC[C@@H]1c1ncc(-c2ccc3c(c2)cc2n3C(c3ccc(C4CC4)s3)Oc3cc(-c4cnc([C@@H]5CCCN5C(=O)[C@H](NC(=O)OC)C(C)(C)F)[nH]4)cc(F)c3-2)[nH]1)C1C[C@@H](C)O[C@@H](C)C1 (stereo partly shown) [Compound 380]	0.022
COC(=O)NC(C(=O)N1CCC[C@H]1c1ncc(-c2ccc3c(c2)cc2n3C(c3cc(C)c(C)s3)Oc3cc(-c4cnc([C@@H]5CCCN5C(=O)[C@@H](NC(=O)OC)C5CCOCC5)[nH]4)cc(F)c3-2)[nH]1)C(C)(C)F (stereo partly shown) [Compound 128]	0.044
COC(=O)NC(C(=O)N1CCC[C@H]1c1ncc(-c2cc(F)c3c(c2)OC(c2ccc(C4CC4)s2)n2c-3cc3cc(-c4cnc([C@@H]5CCCN5C(=O)C(NC(=O)OC)C(C)(C)F)[nH]4)ccc32)[nH]1)C(C)(C)F (single isomer, unassigned) [Compound 111]	0.13
COC(=O)NC(C(=O)N1CCC[C@H]1c1ncc(-c2ccc3c(c2)cc2n3C(c3ccc(C4CC4)s3)Oc3cc(-c4cnc([C@@H]5CCCN5C(=O)C(NC(=O)OC)C(C)(C)F)[nH]4)cc(F)c3-2)[nH]1)C1C[C@@H](C)O[C@@H](C)C1 (single isomer, unassigned) [Compound 379]	0.798
COC(=O)N[C@H](C(=O)N1CCC[C@H]1c1ncc(-c2cc(F)c3c(c2)OC(c2csc(C4CC4)c2)n2c-3cc3cc(-c4cnc([C@@H]5CCCN5C(=O)[C@@H](NC(=O)OC)C(C)C)[nH]4)ccc32)[nH]1)C(C)C (single isomer, unassigned) [Compound 322]	0.82
